Parameter: Kd. Scope: all listed entries.
Measured on: von Willebrand factor (VWF) (Homo sapiens, UniProt P04275 P04275:764-2813)
Experiment description: filter; Bmax 77%; 2 mM CaCl2, 37 C
Test conditions: tags: factor VIII free human purified VWF, Haematologic Technologies Inc; label: 5'-32P
Response body: numeric value in nM, unit text excluded.

Guide cases for Kd, answers given:
- Binder: "ACGAACUGCCCUCGAUCGACGCACAGACGUAAAAA (ssRNA, 2'-F C9,C10,C11,C20,C22; ribo G21; rest 2'-OMe; 3' idT) [T83 vrt4]"
  Kd [nM]: 20
- Binder: "ACGAACUGCCCUCGAUCGACGCACAGACGUACACG (ssRNA, 2'-F C9,C10,C11,C20,C22; ribo G21; rest 2'-OMe; 3' idT) [T84 vrt4]"
  Kd [nM]: 22

What value of Kd has been reported for the following binder? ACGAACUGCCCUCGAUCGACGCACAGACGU (ssRNA, 2'-F U7,C9,C10,C11,U12,C20,C22,U30; ribo G21; rest 2'-OMe; 3' idT) [T59 vrt23] 1.7
